Target: SARS-CoV-2 spike receptor binding domain (RBD), wild type (SARS-CoV-2, UniProt P0DTC2 319-539)
Test: ELISA on coated RBD protein
Readout label: EC50 (ng/mL)

1) C058 (antibody, V domains shown) VH: QVQLVQSGAEVKKPGASVKVSCKASGYIFTDYSMHWVRQAPGQGLEWIGWVNPNSGGTNYAQKFQGWVTMARDTSITTVYMELSRLKSDDTAVYFCARGPLFHRLVYDFWSGYHDGFDMWGQGTMVTVSS VL: QSALTQPASVSGSPGQSITISCTGTSSDVGGYKFVSWYQQHPGKAPKLMIYEVSNRPSGVSNRFSGSKSGNTASLTISGLQAEDEADYYCNSYTSSSTWVFGGGTKLTVL; 2.28
2) C053 (antibody, V domains shown) VH: EVQLVESGGGLIQPGGSLRLSCAASGFIVSNNYMSWVRQAPGKGLDWVSVIYSGGTTYYADSVKGRFTISRDNSKNTLYLQMNSLRAEDTAVYYCAREGDVEGYHDSWSGYSRDRYYFDYWGQGTLVTVSS VL: QSALTQPASVSGSPGQSITISCTGSSSDVGGYNFVSWYQQHPGRAPKLMIYDVSNRPSGVSNRFSGSKSGNTASLTISGLQVEDEADYYCSSYTNNNTRVFGTGTKVTVL; 1.53
3) C096 (antibody, V domains shown) VH: EVQLVESGGGLVKPGGSLRLSCVASGFTFRNAWMNWVRQAPGKGLEWVGRIKANSDGGTIDYAEPVQGRFTISREDSRNSLYLQMNSLKTEDTAVYYCTTGPQYDDFGHSYIVDSWGPGTLVTVSS VL: DIVMTQSPLSLPVTLGEPASISCRSSQSLLHSNGFHFLEWYLQKPGQSPQLLIYVGSNRASGVPDRFSGSGSGTDFTLKISRVEAEDVGVYYCMQTLQTPLTFGGGTKVEIK; 5.18
4) C710 (antibody, V domains shown) VH: QVQLQESGPGLVKPSETLSLTCIVSGGSINSTTYYWDWIRQSPGKGLEWIGSIFYTGITYYSPSLKTRVTISVDTSKNQFSLRLNSMTAADTAVYYCARRLRQLWFGPWFDPWGQGTLVTVSS VL: QSALTQPPSASGSPGQSVTISCTGTRSDVGDYNYVSWYQQHPDKAPKLIIFEVTKRPSGVPDRFSGSKSGNTASLTVSGLQAEDEADYYCSSYAGSSNVMFGGGTKLTVL; 17.8
